Test system: SR leukemia
Experiment: NCI tumour cell line growth inhibition, 48 h; in the data active means GI50 below about 0.43 µM; inactive means the rest
Use one of these outcomes when replying: active, inactive

Query: Please share the test call associated with COC(=O)C1=C(C(=O)ON)C2C=CC1(C(Cc1ccccc1)Nc1ccccc1)O2 (centres undefined) .
Response: inactive

Query: Please share the test call associated with C/C(=N/Nc1nc2ccccc2n1C)c1ccccn1 .
Response: active

Query: Please share the test call associated with Ic1ccccc1-c1ccccc1 .
Response: inactive

Query: Please share the test call associated with Cc1cc(S(N)(=O)=O)c(S/C(CC(C)C)=N\Nc2ccc([N+](=O)[O-])cc2)cc1Cl .
Response: inactive

###

System: M14 melanoma
Experiment: NCI tumour cell line growth inhibition, 48 h
For each of the molecules below, state its TGI.

Query: Fill blank: measured TGI of the molecule Cc1c(-c2c(-c3ccc(F)o3)sc3ncnc(O[C@H](Cc4ccccc4OCc4ccnn4CC(F)(F)F)C(=O)O)c23)ccc(OCCN2CCN(C)CC2)c1Cl is ____.
Response: 5.83 µM

Query: Fill blank: measured TGI of the molecule CC(=O)OC1COC(Nc2ccc(C(C)=O)cc2)C(OC(C)=O)C1OC(C)=O (stereo not drawn) is ____.
Response: > 100 µM

Query: Fill blank: measured TGI of the molecule Cc1ccc(C)n1-n1c(Cc2ccccc2)n[nH]c1=O is ____.
Response: > 100 µM

Query: Fill blank: measured TGI of the molecule O=C1c2ccccc2NC(=O)C2C1C(c1ccccc1)CC2(O)c1ccccc1 (stereo not drawn) is ____.
Response: > 100 µM

Query: Fill blank: measured TGI of the molecule O=c1nc2n(-c3ccc(Cl)cc3)c3ccc([N+](=O)[O-])cc3cc-2c(=O)[nH]1 is ____.
Response: 37.7 µM

Query: Fill blank: measured TGI of the molecule CC(=O)N1OC(C)CC1Nc1ccc(Br)cc1 (stereo not drawn) is ____.
Response: > 100 µM

Query: Fill blank: measured TGI of the molecule Cc1ccc2c(=O)c3cccc(CC(=O)O)c3[nH]c2c1C is ____.
Response: > 100 µM

Query: Fill blank: measured TGI of the molecule Cc1ccc(NN=NCCCCN)cc1 is ____.
Response: > 100 µM

Query: Fill blank: measured TGI of the molecule CCCCCCCCCCCCCC(=O)CC(=O)c1c(O)cccc1O is ____.
Response: > 100 µM

Query: Fill blank: measured TGI of the molecule CN(CCCCN1CCCC1)CCCN(C)C(=O)Cc1ccc(Cl)c(Cl)c1 is ____.
Response: 38.1 µM

Query: Fill blank: measured TGI of the molecule Nc1ncnc2c1nc(Cl)n2C1OC2COP(=O)(O)OC2C1O (stereo not drawn) is ____.
Response: > 300 µM

Query: Fill blank: measured TGI of the molecule COc1cc(C2c3cc(O)c(OC)cc3C3OCC2C3CO)ccc1O (stereo not drawn) is ____.
Response: > 100 µM

Query: Fill blank: measured TGI of the molecule CC(=O)O[C@H]1C(=O)[C@@]2(C)[C@H]([C@H](OC(=O)c3cccc(C(F)(F)F)c3)[C@]3(O)C[C@H](OC(=O)[C@H](O)[C@@H](NC(=O)c4ccccc4)c4ccccc4)C(C)=C1C3(C)C)[C@]1(OC(C)=O)CO[C@@H]1C[C@@H]2O is ____.
Response: 11.9 µM
